- system name: Prostaglandin E2 receptor EP1 subtype (Homo sapiens, UniProt P34995)
- Sequence (P34995 whole entry): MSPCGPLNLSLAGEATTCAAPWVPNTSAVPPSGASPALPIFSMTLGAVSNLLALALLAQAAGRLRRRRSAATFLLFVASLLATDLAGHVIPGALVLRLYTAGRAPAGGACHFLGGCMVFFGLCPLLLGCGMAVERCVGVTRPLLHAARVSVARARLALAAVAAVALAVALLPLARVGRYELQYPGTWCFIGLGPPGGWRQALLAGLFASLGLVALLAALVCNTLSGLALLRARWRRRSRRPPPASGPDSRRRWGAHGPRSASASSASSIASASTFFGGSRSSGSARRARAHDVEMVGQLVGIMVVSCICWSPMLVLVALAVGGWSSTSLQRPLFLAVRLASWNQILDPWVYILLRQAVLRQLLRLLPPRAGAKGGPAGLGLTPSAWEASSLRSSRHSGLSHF
- assay name: Functional activity in RAT-1cells, transiently-transfected with human Prostaglandin E receptor EP1 (% of control ligand, 17-phi-PGE2<50%)
pEC50: −log10 of the molar value.
metric: pEC50

>>> print(df.to_string())
                               input_smiles                               system_name  metric  recorded_value
0  CCCCC[C@H](O)CC[C@@H]1[C@@H](CCCCCCC(=O)O)[C@@H](O)C[C@H]1O  Prostaglandin E2 receptor EP1 subtype (Homo sapiens, UniProt P34995)   pEC50          < 5.00

From here, focus on the item given below.
-- ask Complete the entry with pEC50 for O=C(O)CCC/C=C\C[C@@H]1[C@@H](/C=C/[C@@H](O)CCc2cccc(C(F)(F)F)c2)[C@H](O)C[C@@H]1O
-- reply < 4.70

---

- system name: Thromboxane A2 receptor (Homo sapiens)
- assay name: Functional activity in RAT-1cells, transiently-transfected with human TP-receptor (% of control ligand, [3H]-U-46,619<20%)
metric: EC50

-- ask Complete the entry with EC50 for CCCCC(C)(C)[C@H](O)CC[C@@H]1[C@@H](CCCCCCC(=O)O)[C@@H](O)C[C@H]1O
-- reply > 20 µM

---

- system name: Prostaglandin F2-alpha receptor (Homo sapiens)
- assay name: Functional activity in RAT-1cells, transiently-transfected with human FP-receptor (% of control ligand, fluprostenol=150%)
metric: EC50 (nM)
Answers are plain numbers, in nM.

-- ask Complete the entry with EC50 for CCCCC(C)(C)[C@H](O)/C=C/[C@@H]1[C@@H](C/C=C\CCCC(=O)O)[C@@H](O)C[C@H]1O
-- reply 90

---

- system name: Prostaglandin E2 receptor EP3 subtype (Homo sapiens, UniProt P43115)
- Sequence (P43115 whole entry): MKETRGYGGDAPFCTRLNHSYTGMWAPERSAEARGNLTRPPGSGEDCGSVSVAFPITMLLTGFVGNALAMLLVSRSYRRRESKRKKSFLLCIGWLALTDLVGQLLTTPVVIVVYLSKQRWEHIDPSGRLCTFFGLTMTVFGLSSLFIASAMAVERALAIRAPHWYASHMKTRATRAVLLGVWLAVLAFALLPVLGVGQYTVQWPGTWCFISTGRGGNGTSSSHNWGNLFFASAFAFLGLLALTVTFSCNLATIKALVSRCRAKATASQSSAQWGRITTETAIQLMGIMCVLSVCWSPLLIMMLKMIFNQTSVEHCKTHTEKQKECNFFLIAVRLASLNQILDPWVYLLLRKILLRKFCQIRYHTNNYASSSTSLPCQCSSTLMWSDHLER
- assay name: Functional activity in RAT-1cells, transiently-transfected with human Prostaglandin E receptor EP3 (% of control ligand, sulprostone=50%)
metric: pEC50
Answers are plain numbers, as −log10 of the molar value.

-- ask Print Prostaglandin E2 receptor EP3 subtype (Homo sapiens, UniProt P43115) pEC50 for CCCCC[C@H](O)/C=C/[C@@H]1[C@@H](C/C=C\CCCC(=O)O)[C@@H](O)C[C@H]1O [DINOPROST] .
-- reply 5.64

---

- system name: Thromboxane A2 receptor (Homo sapiens, UniProt P21731)
- Sequence (P21731 whole entry): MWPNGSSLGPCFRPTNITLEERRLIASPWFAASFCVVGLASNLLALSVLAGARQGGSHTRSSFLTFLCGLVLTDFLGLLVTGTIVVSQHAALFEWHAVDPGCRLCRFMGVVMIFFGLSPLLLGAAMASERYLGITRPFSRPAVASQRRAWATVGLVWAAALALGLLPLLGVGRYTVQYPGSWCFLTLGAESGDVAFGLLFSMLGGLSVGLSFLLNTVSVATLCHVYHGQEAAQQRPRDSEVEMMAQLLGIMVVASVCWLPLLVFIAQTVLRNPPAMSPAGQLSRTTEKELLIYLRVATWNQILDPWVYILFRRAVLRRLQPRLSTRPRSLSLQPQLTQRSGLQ
- assay name: Functional activity in RAT-1cells, transiently-transfected with human TP-receptor (% of control ligand, [3H]-U-46,619=90%)
metric: EC50
# do not omit the unit; it follows the number

-- ask Complete the entry with EC50 for O=C(O)CCCCCC[C@@H]1[C@@H](CC[C@@H](O)COc2cccc(Cl)c2)[C@H](O)C[C@@H]1O
-- reply 8 µM

---

- system name: Prostaglandin F2-alpha receptor (Homo sapiens, UniProt P43088)
- Sequence (P43088 whole entry): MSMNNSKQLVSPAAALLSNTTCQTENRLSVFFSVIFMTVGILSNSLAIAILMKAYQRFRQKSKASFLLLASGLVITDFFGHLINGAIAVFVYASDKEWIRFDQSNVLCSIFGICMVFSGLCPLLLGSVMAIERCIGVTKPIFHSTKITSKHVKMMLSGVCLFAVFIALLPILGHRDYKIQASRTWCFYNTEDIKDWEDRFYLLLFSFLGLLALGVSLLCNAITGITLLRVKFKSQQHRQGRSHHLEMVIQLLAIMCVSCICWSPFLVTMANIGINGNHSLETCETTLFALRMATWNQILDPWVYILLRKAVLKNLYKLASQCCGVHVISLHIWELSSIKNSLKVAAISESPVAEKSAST
- assay name: Functional activity in RAT-1cells, transiently-transfected with human FP-receptor (% of control ligand, fluprostenol<20%)
metric: EC50

-- ask Complete the entry with EC50 for CCCCC(C)(C)[C@H](O)CC[C@@H]1[C@@H](CCCCCCC(=O)O)[C@@H](O)C[C@H]1O
-- reply > 20 µM

---

For each record, write down the corresponding IC50.
- system name: Prostaglandin F2-alpha receptor (Homo sapiens)
- assay name: Displacement of [3H]PGF2-alpha from human FP-receptor expressed in CHO-KI cells
- Assay type: cell-based
Answers are plain numbers, in nM.

Recorded results for 3 molecules are shown here.
>>> print(df.to_string())
                               input_smiles  recorded_value
0  O=C(O)CCC/C=C\C[C@@H]1[C@@H](/C=C/[C@@H](O)CCc2cccc(C(F)(F)F)c2)[C@H](O)C[C@@H]1O              10
1  O=C(O)CCCCCC[C@@H]1[C@@H](CC[C@@H](O)CCc2cccc(C(F)(F)F)c2)[C@H](O)C[C@@H]1O             8.6
2  CCCCC(C)(C)[C@H](O)/C=C/[C@@H]1[C@@H](C/C=C\CCCC(=O)O)[C@@H](O)C[C@H]1O              16

Items follow; give IC50 for each.
1. CCCCC[C@H](O)CC[C@@H]1[C@@H](CCCCCCC(=O)O)[C@@H](O)C[C@H]1O
2. O=C(O)CCCCCC[C@@H]1[C@@H](CC[C@@H](O)COc2cccc(Cl)c2)[C@H](O)C[C@@H]1O

-- reply
[522, 1]

All values here come from ChEMBL document CHEMBL1133030.
